# assay-info: 19F spin-spin relaxation time (T2) measurement by CPMG method, 500 MHz NMR
# Type: physicochemical
# condition-details: 5 mM/CDCl3, 36° C.
Binarize T2 (19F spin-spin relaxation time) at 0.1 s; below is Met, at or above is Not met.

// below: answered compounds
compound	qualitative-label
CCC1(CC)CC(OCCCOCC(COC(C(F)(F)F)(C(F)(F)F)C(F)(F)F)(COC(C(F)(F)F)(C(F)(F)F)C(F)(F)F)COC(C(F)(F)F)(C(F)(F)F)C(F)(F)F)CC(CC)(CC)N1O [Compound 17]	Not met
CCC1(CC)CC(OCCOCC(COC(C(F)(F)F)(C(F)(F)F)C(F)(F)F)(COC(C(F)(F)F)(C(F)(F)F)C(F)(F)F)COC(C(F)(F)F)(C(F)(F)F)C(F)(F)F)CC(CC)(CC)N1O [Compound 15]	Met

Now let's try a different one.
// query Take the compound CCC1(CC)CC(OCC(COC(C(F)(F)F)(C(F)(F)F)C(F)(F)F)(COC(C(F)(F)F)(C(F)(F)F)C(F)(F)F)COC(C(F)(F)F)(C(F)(F)F)C(F)(F)F)CC(CC)(CC)N1O [Compound 12] and say whether its T2 (19F spin-spin relaxation time) is less than 0.1 s.
// result Met

----------
# assay-info: 19F spin-lattice relaxation time (T1) measurement by inversion recovery method, 500 MHz NMR
# Assay type: physicochemical
# condition-details: 5 mM/CDCl3, 36° C.
T1 (19F spin-lattice relaxation time) vs 0.2 s: less than gives label 1; not less than gives label 0.

Some solved cases for reference:
molecule	qualitative-label
CC1(C)CC(OCCCCCCOCC(COC(C(F)(F)F)(C(F)(F)F)C(F)(F)F)(COC(C(F)(F)F)(C(F)(F)F)C(F)(F)F)COC(C(F)(F)F)(C(F)(F)F)C(F)(F)F)CC(C)(C)N1O [Compound 18]	label 0
CC1(C)CC(OCCCOCC(COC(C(F)(F)F)(C(F)(F)F)C(F)(F)F)(COC(C(F)(F)F)(C(F)(F)F)C(F)(F)F)COC(C(F)(F)F)(C(F)(F)F)C(F)(F)F)CC(C)(C)N1O [Compound 16]	label 1

// query Is it true that T1 (19F spin-lattice relaxation time) reported for CC1(C)CC(OCCOCC(COC(C(F)(F)F)(C(F)(F)F)C(F)(F)F)(COC(C(F)(F)F)(C(F)(F)F)C(F)(F)F)COC(C(F)(F)F)(C(F)(F)F)C(F)(F)F)CC(C)(C)N1O [Compound 14] is less than 0.2 s?
// result label 1

----------
# assay-info: 19F spin-spin relaxation time (T2) measurement by CPMG method, 500 MHz NMR
# Type: physicochemical
# condition-details: 5 mM/CDCl3, 36° C.
Hi there, I'd appreciate the recorded T2 (19F spin-spin relaxation time) for every entry that follows.
// unit must come after the numeric part

CC1(C)CC(OCCCCCCOCC(COC(C(F)(F)F)(C(F)(F)F)C(F)(F)F)(COC(C(F)(F)F)(C(F)(F)F)C(F)(F)F)COC(C(F)(F)F)(C(F)(F)F)C(F)(F)F)CC(C)(C)N1O 0.274 s
CC1(C)CC(OCCCCCCCCCCCCOCC(COC(C(F)(F)F)(C(F)(F)F)C(F)(F)F)(COC(C(F)(F)F)(C(F)(F)F)C(F)(F)F)COC(C(F)(F)F)(C(F)(F)F)C(F)(F)F)CC(C)(C)N1O 0.390 s
CC1(C)CC(OCCOCC(COC(C(F)(F)F)(C(F)(F)F)C(F)(F)F)(COC(C(F)(F)F)(C(F)(F)F)C(F)(F)F)COC(C(F)(F)F)(C(F)(F)F)C(F)(F)F)CC(C)(C)N1O 0.101 s
CC1(C)CC(OCCCOCC(COC(C(F)(F)F)(C(F)(F)F)C(F)(F)F)(COC(C(F)(F)F)(C(F)(F)F)C(F)(F)F)COC(C(F)(F)F)(C(F)(F)F)C(F)(F)F)CC(C)(C)N1O 0.120 s

// query Consider the compound CC1(C)CC(OCCCCCCCCCOCC(COC(C(F)(F)F)(C(F)(F)F)C(F)(F)F)(COC(C(F)(F)F)(C(F)(F)F)C(F)(F)F)COC(C(F)(F)F)(C(F)(F)F)C(F)(F)F)CC(C)(C)N1O and give its measured T2 (19F spin-spin relaxation time).
// result 0.332 s

----------
# assay-info: 19F spin-lattice relaxation time (T1) measurement by inversion recovery method, 500 MHz NMR
# Type: physicochemical
# condition-details: 5 mM/CDCl3, 36° C.
Task for the reader: assign each of the following compounds its reported T1 (19F spin-lattice relaxation time).
Answers are plain numbers, in s.

CC1(C)CC(OCCCCCCCCCCCCOCC(COC(C(F)(F)F)(C(F)(F)F)C(F)(F)F)(COC(C(F)(F)F)(C(F)(F)F)C(F)(F)F)COC(C(F)(F)F)(C(F)(F)F)C(F)(F)F)CC(C)(C)N1O 0.612
CC1(C)CC(OCCCCCCCCCOCC(COC(C(F)(F)F)(C(F)(F)F)C(F)(F)F)(COC(C(F)(F)F)(C(F)(F)F)C(F)(F)F)COC(C(F)(F)F)(C(F)(F)F)C(F)(F)F)CC(C)(C)N1O 0.520
CCC1(CC)CC(OCCCOCC(COC(C(F)(F)F)(C(F)(F)F)C(F)(F)F)(COC(C(F)(F)F)(C(F)(F)F)C(F)(F)F)COC(C(F)(F)F)(C(F)(F)F)C(F)(F)F)CC(CC)(CC)N1O 0.172

Take each entry in turn and give its T1 (19F spin-lattice relaxation time).
1. CCC1(CC)CC(OCCOCC(COC(C(F)(F)F)(C(F)(F)F)C(F)(F)F)(COC(C(F)(F)F)(C(F)(F)F)C(F)(F)F)COC(C(F)(F)F)(C(F)(F)F)C(F)(F)F)CC(CC)(CC)N1O
2. CCC1(CC)CC(OCC(COC(C(F)(F)F)(C(F)(F)F)C(F)(F)F)(COC(C(F)(F)F)(C(F)(F)F)C(F)(F)F)COC(C(F)(F)F)(C(F)(F)F)C(F)(F)F)CC(CC)(CC)N1O

// result
1: 0.145; 2: 0.070
